experiment: yeast display, Sf9 membrane polyspecificity reagent, FACS + sequencing; frameworks hold sequencing errors
Readout: polyreactivity (PSR sort gate)

Below: 6 sequences and their reported polyreactivity (PSR sort gate).
Chain sequence: QVQLVESGGGLVQAGGSLRLSCAASGFIFSYYAMGLYRQAPGKERELVAAINWTGGSTYYADSVKGRFTISRDNAKNTVYLQMNSLKPEDTAVYYCAADSHLRGRSEDYWGQGTQVTVSS
Measurement: high polyreactivity

Chain sequence: QVQLVESGGGLVQAGGSLRLSCAASGSTFNGYAMGWYRQAPGKERELVAAITSSGSRTYYADSVKGRFTISRDNAKNTVYLQMNSLKPVDTAVYYCNAGKLARTYFRSSSVSPGDYWGQGTQVTVSS
Measurement: high polyreactivity

Chain sequence: QVQLVESGGGLVQAGGSLRLSCAASGSTFGRYAMGWYRQAPGKERELVAAISPRGGSTYYADSVKGRFTISRDNAKNTVYLQMNSLKPEDTAVYYCATGYPIDLGREFDYWGQGIQVTVSS
Measurement: high polyreactivity

Chain sequence: QVQLVESGGGLVQAGGSLRLSCAASGFTFQNYAMGWYSQAPGKERELVAAITYSGGSTYYADSVKGRFTISRDNAKNPVYLQMHSLKPEDTAVYYCAKKASYWWGYEYWGQGTQVTVSS
Measurement: low polyreactivity

Chain sequence: QVQLVESGGGLVQAGGTLLLTCAASGFIFDIYAMGWSRPAPGKERELVAAITWNSGSTHYADSVKGRFTISRDTAKNTVYLQMNRLKPEDTAVYYCAADEVTYAYYPYDYWGQGTQVTVSS
Measurement: low polyreactivity

Chain sequence: QVELVESGGGLVQPGGSLRLSCAASGRTLSRYTMGWYRQAPGKERELVAAISTSGSTYYADSVKGRFTISRDNAKNTVYLQMNSLKPEDTAVYYCAADRFGIGGIRGNDYWGQGTQVTVSS
Measurement: high polyreactivity

Query: Fill blank: measured polyreactivity (PSR sort gate) of the sequence QVQLVESGGGLVQAGGSLRLSCAASGSTFFGNAMGWYRQAPGTERELVAAIRFSGVGTYYADSVKGRFTISLDNAKNTVYLQMNSLKPEDTAVYYSAAESYYKYYWGQGTQVTVSS is ____.
Reply: low polyreactivity

Query: Could you do the same for QVHLVESGGVIVQAGGILRLSCAASGNIFTYYVMGWYRQAPGKERELVAAISRRGGSTYYADSVKGRFTISRDIAKNTVYLQMNSLKPEDTAVYYCAKKYPRDMDYWGQVTQVTVSS , please?
Reply: high polyreactivity

----------
experiment: yeast display, Sf9 membrane polyspecificity reagent, FACS + sequencing; frameworks hold sequencing errors
Readout: polyreactivity (PSR sort gate)

Below: 6 sequences and their reported polyreactivity (PSR sort gate).
Chain sequence: QVQLVVSGGGLVQAGGSLRLSWAASGIIFYEYAMGWYRQAPGTERELVAAITWSGRTYADSVKGRFTISRDNAKNTVYLQMNSLKPEDTAVYYCNAVYFGGPFFGQYNYWGQGTQVTVSS
Measurement: low polyreactivity
//
Chain sequence: QVQLVESGGGLVQAGGSLRLSCAASGFIFASYAMGWYRQATGKERELVAAITQSGGITYYADSVKGRFTISRDNAKNTVYLQMNSLKPEDTAVYYCNTPLMKRTTRGRERNYWGQGTQVTVSS
Measurement: low polyreactivity
//
Chain sequence: QVQLVESGGGLVQAGGSLRLSCAASGSTFDIYVMGWYRQAPGKESELVAAISRVGNTSYADSVKGRFTISRDNAKNTVNLQMNSLKPEDTAVYYCAADAPSWYDRQYDYWGQCTQVTVSS
Measurement: low polyreactivity
//
Chain sequence: QVQLQERAAWCRRAGSLRLSFAASGNISDYYFMGWYRQAPGKEREIFAAIAPGSNTFFADSVKGRFTISRDNATNTVYLQMNSLNPEDTAVYYCARQGTIYSYDIVYPRLDYWGQGTQVTVSS
Measurement: low polyreactivity
//
Chain sequence: QVQLQESGGGLVQAGGSPRLSCAASDNIFPDSVMCWYRQAPGNERELVATIGFGATTNYADSVKGRFTISRDNAKNTVYLQMNSLKTEYTAVYYCAADPLNFDYFCYWGQGTQVTVSS
Measurement: low polyreactivity
//
Chain sequence: QVQLVESGGGLVQAGGSLRLSCAASGRIIARYAMGWSRQAPGKERELVAAISRGGGRTYYADSVKGRFTISRDNATNTVYLQMNSLKPEDTAVYYCAADAYSIASVGYDYWGQGTQVTVSS
Measurement: high polyreactivity

Query: Fill blank: measured polyreactivity (PSR sort gate) of the sequence QVQLVESGGGLVQAGGSLRLSCAASGSIFYVYAMGWYRQAPGKERELVAAITSSGTTNYADSVKGRFTISRDNAKNTVYLQMNSLKPEDTAVYYCAADPDSGQVPFDYWGQGTQVTVSS is ____.
Reply: low polyreactivity

Query: Could you do the same for QVLLVESGGGLVQAGGSLRLSCAASGLTFVYVMGWYRQAPGKERELVAGISYSAGRTYYADSVKGRFTISRDNAKNTVYLQMNSLKPEDTAVYYCAATKRGRPQRGYWGQGTQVTVSS , please?
Reply: high polyreactivity

Query: Could you do the same for QVHLVESGGGLVQAGGSLRLSCAASGSIFTQYAMGWYRQAPGKERELVARITGSGGRTYYADSVKGRFTISRDNAKNTVYLQMNSLKPEDTAVYYCNARLYTYGRHQGPDYNYWGQGTQVTVSS , please?
Reply: high polyreactivity

Query: Could you do the same for QVQIVESGGGLVQAGASLRLSCAASGSISKSYAMGWYRQAPGKERELVAAISWRGGSTYADSVKGRFTISRDNAENTVYSLMNSLKPEDTAVYYCAATNYGSFWGGQSERYDYWGQGTQVTVSS , please?
Reply: low polyreactivity

Query: Could you do the same for QVHLVESGGGLVQAGGSLRLSSAASGITFYGNAMGWYRQAPGKERELVATISSGGSTNYADSVKGRFTISRDNAKNTVYLQMHSLKPEDTAVYYCNAAPDVNRDYEGSGDYWGQGTQVTVSS , please?
Reply: low polyreactivity

----------
assay: yeast display, Sf9 membrane polyspecificity reagent, FACS + sequencing; frameworks hold sequencing errors
Readout: polyreactivity (PSR sort gate)

Below: 5 sequences and their reported polyreactivity (PSR sort gate).
Chain sequence: QVQLQESGGGLVQAGGSLRLSCAASGSISHYIFMGWYRQAPGKEREFVAGIGYGGTTNYADSVKGRFTISRDNAINTVYLQMNSLKPEDTAMYYCAAREATEFYLYYWGQGTQVTVSS
polyreactivity (PSR sort gate): low polyreactivity
//
Chain sequence: QVQLVESGGRLVQAGGSLRLRCAASGRIIAYYAMGWYRQAPGKERELVAAISRSGGSTYYADSVKGRFTISRDTAQNYVYLQMNSLKPEDTAVYYCAASLIVPYATMNYWGQGTQVTVSS
polyreactivity (PSR sort gate): high polyreactivity
//
Chain sequence: QVQLVESGGGLVQAGGSLRLSCAASGRTFYNAMGWYRQAPGKERELVAGIRWSGASTYYADSVKGRFTISRDNAKNTVYLQMNSLKPEDTAVYYCAARRHSTRLRLTYDYWGQGTQVTVSS
polyreactivity (PSR sort gate): high polyreactivity
//
Chain sequence: QVQLVESGGGLVQAGGSLRLSCSASGLTFYSNAMGWYRQAPGKERELVASISKRGATTYYADSVKGRFTISRDNAKNTVYLQMNSLKPEDTAVYYCAADLRITSYNSWGQGTQVTVSS
polyreactivity (PSR sort gate): low polyreactivity
//
Chain sequence: QVQLVESGGGLVQAGGSLRLSCAASGIIYYLYAMGWYRHAPGKERELVATISRRGGSTYYADSVKGRFTISRDNAKNTVYLQMNSLKPEDTAVYYCATGHYSVGRSFSSGSYEYWGQGTQVTVSS
polyreactivity (PSR sort gate): high polyreactivity

Proceeding to the next sequence to report its polyreactivity (PSR sort gate).
Query: Fill blank: measured polyreactivity (PSR sort gate) of the sequence QVQLVESGGGLVQAGGSLRLSCAASGIISRVYAMGWYRQAPGKERELVAAISGSGGTTYYADSVKGRFTISRDNAKNTVYLQMNSLKPEDTAVYYCAARYKALYDYWGQGTQVTVSS is ____.
Reply: high polyreactivity

----------
assay: yeast display, Sf9 membrane polyspecificity reagent, FACS + sequencing; frameworks hold sequencing errors
Readout: polyreactivity (PSR sort gate)

Below: 4 sequences and their reported polyreactivity (PSR sort gate).
Chain sequence: QVQLVESGGGLVQAGGSLRLSCAASGRTFRGNAMGWYRQAPGKERELVAAGGSTYYADSVKGRFTISRDNAKNTVYLQINSLKPEDTAVYYCAAALGFSRYSWFCYGYWGQGTQVTGSS
Measurement: low polyreactivity
--
Chain sequence: QVQLVESGGGLVQAGGSLRLSCAASGFTFSRYAMGWYRQAPGKERELVAAIDDGGSTYYADSVKGRFTISRDNAKNTVYLQMNSLKPEDTAVYYCNARGYGTLNVRRERMDYWGQGTQVTVSS
Measurement: high polyreactivity
--
Chain sequence: QVQLVESGGGLVQAGGSLRLSCAASGRIFSYYAMGWYRQAPGKERELVASISTSSGSTYYADSVKGRFTISRDNAKNTVYLQMNSLKPEDTAVYYCNADYTGYYRWRNDDYWGQGTQVTVSS
Measurement: high polyreactivity
--
Chain sequence: QVQLVESGGGLVQAGGSLRLSCAASGSTFIWNGIVWSRQAPGNEREWVAAITSSSTNYADSVKGRFTISRDNANNTVYVQMNSLKPEDTAVYYCAAEIYPLGSLRLGPGEYDHWGQGTQVTVSS
Measurement: low polyreactivity

Query: Fill blank: measured polyreactivity (PSR sort gate) of the sequence QVQLVESGGGLVQAGGSLRLSCAASGLTFSDYAMGWYRQAPGKERELVAAITYNGGSTYYADSVKGRFTISRDNAKNTVYLQMNSLKPEDTAVYYCAADTDDVGLRDYWGQGTQVTVSS is ____.
Reply: low polyreactivity

Query: Could you do the same for QVQLVESGGGLVQAGVSLPLICAASGFTIAYYTMGWYRQAPGKERELVAAISRRGSSTYYADSVMGRFTISRDNAKNTVDLQMNSLKPEDTAVYYCNKYSVLTPGYYYWGQGTQVTVSS , please?
Reply: high polyreactivity

Query: Could you do the same for QVQLVESGGGLVQAGGSLRLSCAASGSIFYRNAMGWYRQAPGKERELDAAIDSGDSTNYADSVKGRFTISRDNAKNTVYLQMNSLKPEDTAVYYCAARVIYYYGSGPYDYWGQGTQVTVSS , please?
Reply: low polyreactivity
